Just for reference, patent US20230365537A1 is where these values come from.

Biological target: human recombinant PLK4 (Homo sapiens (Human), UniProt O00444)
Sequence (O00444 whole entry): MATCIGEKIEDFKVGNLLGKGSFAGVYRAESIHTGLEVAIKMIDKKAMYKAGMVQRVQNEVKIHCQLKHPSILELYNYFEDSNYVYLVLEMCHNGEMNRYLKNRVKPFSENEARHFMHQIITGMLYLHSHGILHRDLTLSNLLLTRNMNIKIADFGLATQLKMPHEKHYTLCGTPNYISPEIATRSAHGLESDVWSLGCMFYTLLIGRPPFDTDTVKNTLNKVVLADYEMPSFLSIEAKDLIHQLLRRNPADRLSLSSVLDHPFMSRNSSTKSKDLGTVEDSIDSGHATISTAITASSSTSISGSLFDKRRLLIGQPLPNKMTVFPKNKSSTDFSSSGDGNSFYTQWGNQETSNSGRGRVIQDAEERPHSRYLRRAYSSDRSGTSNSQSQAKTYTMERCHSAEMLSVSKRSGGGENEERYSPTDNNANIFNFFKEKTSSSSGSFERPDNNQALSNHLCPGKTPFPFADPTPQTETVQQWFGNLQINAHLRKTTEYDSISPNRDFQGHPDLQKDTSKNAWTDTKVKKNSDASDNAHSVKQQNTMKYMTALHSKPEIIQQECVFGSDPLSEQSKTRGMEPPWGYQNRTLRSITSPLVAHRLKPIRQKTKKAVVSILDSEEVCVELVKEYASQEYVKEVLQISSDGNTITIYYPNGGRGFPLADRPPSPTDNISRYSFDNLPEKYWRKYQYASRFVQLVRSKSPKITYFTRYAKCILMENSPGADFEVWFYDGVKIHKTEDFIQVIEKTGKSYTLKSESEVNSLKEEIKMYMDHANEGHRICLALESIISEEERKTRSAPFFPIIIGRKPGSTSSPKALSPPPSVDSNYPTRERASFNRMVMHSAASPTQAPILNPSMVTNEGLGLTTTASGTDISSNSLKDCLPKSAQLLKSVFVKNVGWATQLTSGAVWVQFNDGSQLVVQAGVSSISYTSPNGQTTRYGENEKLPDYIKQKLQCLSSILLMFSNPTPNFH
Experiment: PLK4 Biochemical Assay (ADP-Glo)
Conditions: 0.5 nM PLK4, 8.0 µM ATP, 4.7 µM MBP, 6 hours at RT
pIC50: −log10 of the molar value.
experimental readout: pIC50

> print(dat)
                                    compound  experimental.readout  assay.result
 1  COc1ccc2c(c1)[C@]1(C[C@H]1c1ccc3c(Nc4cc(C)ncc4Cl)n[nH]c3c1)C(=O)N2 [Example 96]                 pIC50          7.95
 2  COc1ccc2c(c1)[C@]1(C[C@H]1c1ccc3c(Nc4ccc(C(=O)N5C6CCC5COC6)nc4OC)n[nH]c3c1)C(=O)N2 [Example 232]                 pIC50          8.99
 3  COc1ccc2c(c1)[C@]1(C[C@H]1c1ccc3c(Nc4cc(C)cnc4OC)n[nH]c3c1)C(=O)N2 [Example 89]                 pIC50          8.64
 4  COc1ccc2c(c1)[C@]1(C[C@H]1c1cc(F)c3c(Nc4nc(SC)ncc4OC)n[nH]c3c1)C(=O)N2 [Example 186]                 pIC50          8.75
 5  CCOc1cc(=O)n(C)nc1Nc1n[nH]c2cc([C@@H]3C[C@@]34C(=O)Nc3ccc(OC)cc34)ccc12 [Example 277]                 pIC50          8.66
 6  COc1ccc2c(c1)[C@]1(C[C@H]1c1ccc3c(Nc4cc5c(cc4OC)C(=O)N(C)C5)n[nH]c3c1)C(=O)N2 [Example 265]                 pIC50          8.70
 7  COc1ccc2c(c1)[C@]1(C[C@H]1c1ccc3c(Nc4ncc(C(=O)N5CCOCC5)cc4OC)n[nH]c3c1)C(=O)N2 [Example 264]                 pIC50          9.11
 8  COc1ccc2c(c1)[C@]1(C[C@H]1c1ccc3c(Nc4ccc(C(=O)N(C)C)nc4Cl)n[nH]c3c1)C(=O)N2 [Example 251]                 pIC50          8.88
 9  COc1ccc2c(c1)[C@]1(C[C@H]1c1ccc3c(Nc4c(OC)cnn4C)n[nH]c3c1)C(=O)N2 [Example 75]                 pIC50          6.80
10  COc1ccc2c(c1)[C@]1(C[C@H]1c1ccc3c(Nc4nc(C5CC5)nc(N5CC(O)C5)c4Cl)n[nH]c3c1)C(=O)N2 [Example 76]                 pIC50          9.36
11  COc1ccc2c(c1)[C@]1(C[C@H]1c1ccc3c(Nc4cn(C)nc4C(F)(F)F)n[nH]c3c1)C(=O)N2 [Example 64]                 pIC50          7.06
12  COc1ccc2c(c1)[C@]1(C[C@H]1c1ccc3c(Nc4cc(N5CCS(=O)(=O)CC5)nc(C5CC5)n4)n[nH]c3c1)C(=O)N2 [Example 59]                 pIC50          8.07
13  COc1ccc2c(c1)[C@]1(C[C@H]1c1ccc3c(Nc4ccc(C#N)nc4OC)n[nH]c3c1)C(=O)N2 [Example 260]                 pIC50          8.03
14  COc1ccc2c(c1)[C@]1(C[C@H]1c1ccc3c(Nc4cc(N5CC(OC)C5)ncn4)n[nH]c3c1)C(=O)N2 [Example 35]                 pIC50          8.12
15  COc1ccc2c(c1)[C@]1(C[C@H]1c1ccc3c(Nc4ncnc(N5CCCCC5)c4OC)n[nH]c3c1)C(=O)N2 [Example 12]                 pIC50          8.30
16  COc1ccc2c(c1)[C@]1(C[C@H]1c1ccc3c(Nc4ccc(C(=O)N(C)C)nc4OC)n[nH]c3c1)C(=O)N2 [Example 166]                 pIC50          9.10
17  COc1ccc2c(c1)[C@]1(C[C@H]1c1ccc3c(Nc4cc(C(=O)N5CCOCC5)ccc4OC)n[nH]c3c1)C(=O)N2 [Example 180]                 pIC50          8.54
18  COc1ccc2c(c1)[C@]1(C[C@H]1c1ccc3c(Nc4cc(N5CCS(=O)(=O)CC5)ncn4)n[nH]c3c1)C(=O)N2 [Example 39]                 pIC50          7.58
19  COc1ccc2c(c1)[C@]1(C[C@H]1c1ccc3c(Nc4ncnc5c4CCC5)n[nH]c3c1)C(=O)N2 [Example 15]                 pIC50          7.34
20  COc1ccc2c(c1)[C@]1(C[C@H]1c1ccc3c(Nc4ncc(S(=O)(=O)N(C)C5(C)COC5)cc4OC)n[nH]c3c1)C(=O)N2 [Example 270]                 pIC50          9.25
21  CCOc1cc(C(=O)N(C)C)cnc1Nc1n[nH]c2cc([C@@H]3C[C@@]34C(=O)Nc3ccc(OC)cc34)ccc12 [Example 203]                 pIC50          8.98
22  COc1ccc2c(c1)[C@]1(C[C@H]1c1ccc3c(Nc4nc(C5CCOC5)ncc4OC)n[nH]c3c1)C(=O)N2 (single isomer, unassigned) [Example 201]                 pIC50          8.77
23  Cc1ncc(OC(F)F)c(Nc2n[nH]c3c(F)c([C@@H]4C[C@@]45C(=O)Nc4ccc(F)cc45)ccc23)n1 [Example 143]                 pIC50          7.07

###

Target: human recombinant PLK4 (Homo sapiens (Human), UniProt O00444)
Assay: PLK4 Biochemical Assay (ADP-Glo)
Conditions: 0.5 nM PLK4, 8.0 µM ATP, 4.7 µM MBP, 6 hours at RT
pIC50: −log10 of the molar value.
# if value of pIC50 reaches 8, tag fulfilled; if it stays below, tag not fulfilled

> print(dat)
                                    compound                          target.or.system          group
 1  CCOc1nc(C(=O)N(C)C)cnc1Nc1n[nH]c2cc([C@@H]3C[C@@]34C(=O)Nc3ccc(OC)cc34)ccc12  human recombinant PLK4 (Homo sapiens (Human), UniProt O00444)      fulfilled
 2  COc1ccc2c(c1)[C@]1(C[C@H]1c1ccc3c(Nc4ncnc(N5CCCOCC5)c4OC)n[nH]c3c1)C(=O)N2  human recombinant PLK4 (Homo sapiens (Human), UniProt O00444)  not fulfilled
 3  CCS(=O)(=O)c1ccc(OC)c(Nc2n[nH]c3cc([C@@H]4C[C@@]45C(=O)Nc4ccc(OC)cc45)ccc23)c1  human recombinant PLK4 (Homo sapiens (Human), UniProt O00444)      fulfilled
 4  COc1ccc2c(c1)[C@]1(C[C@H]1c1ccc3c(Nc4ncc(S(=O)(=O)NC5(C)COC5)cc4OC)n[nH]c3c1)C(=O)N2  human recombinant PLK4 (Homo sapiens (Human), UniProt O00444)      fulfilled
 5  CCS(=O)(=O)c1ccc(Nc2n[nH]c3cc([C@@H]4C[C@@]45C(=O)Nc4ccc(OC)cc45)ccc23)c(OC)n1  human recombinant PLK4 (Homo sapiens (Human), UniProt O00444)      fulfilled
 6  COc1ccc2c(c1)[C@]1(C[C@H]1c1ccc3c(Nc4ncc(C(=O)N5CCC5)cc4OC)n[nH]c3c1)C(=O)N2  human recombinant PLK4 (Homo sapiens (Human), UniProt O00444)      fulfilled
 7  COc1ccc2c(c1)[C@]1(C[C@H]1c1ccc3c(Nc4cc(C)nn4C)n[nH]c3c1)C(=O)N2  human recombinant PLK4 (Homo sapiens (Human), UniProt O00444)      fulfilled
 8  COc1ccc2c(c1)[C@]1(C[C@H]1c1ccc3c(Nc4nc(C)nc5c4CCC5)n[nH]c3c1)C(=O)N2  human recombinant PLK4 (Homo sapiens (Human), UniProt O00444)      fulfilled
 9  COc1ccc2c(c1)[C@]1(C[C@H]1c1ccc3c(Nc4nc(N5CC(O)C5)ncc4Cl)n[nH]c3c1)C(=O)N2  human recombinant PLK4 (Homo sapiens (Human), UniProt O00444)      fulfilled
10  COc1ccc2c(c1)[C@]1(C[C@H]1c1ccc3c(Nc4nc(C5COC5)ncc4OC)n[nH]c3c1)C(=O)N2  human recombinant PLK4 (Homo sapiens (Human), UniProt O00444)      fulfilled
11  COc1ccc2c(c1)[C@]1(C[C@H]1c1ccc3c(Nc4cnc(S(C)(=O)=O)cc4OC)n[nH]c3c1)C(=O)N2  human recombinant PLK4 (Homo sapiens (Human), UniProt O00444)      fulfilled
12  COc1ccc2c(c1)[C@]1(C[C@H]1c1ccc3c(Nc4cccc5c4OCC5O)n[nH]c3c1)C(=O)N2 (stereo in doubt)  human recombinant PLK4 (Homo sapiens (Human), UniProt O00444)      fulfilled
13  COc1ccc2c(c1)[C@]1(C[C@H]1c1ccc3c(Nc4nn(C)cc4OC)n[nH]c3c1)C(=O)N2  human recombinant PLK4 (Homo sapiens (Human), UniProt O00444)  not fulfilled
14  CNC(=O)c1ccc(OC)c(Nc2n[nH]c3cc([C@@H]4C[C@@]45C(=O)Nc4ccc(OC)cc45)ccc23)c1  human recombinant PLK4 (Homo sapiens (Human), UniProt O00444)      fulfilled
15  COc1ccc2c(c1)[C@]1(C[C@H]1c1ccc3c(Nc4cc(OC)c(S(N)(=O)=O)cc4OC)n[nH]c3c1)C(=O)N2  human recombinant PLK4 (Homo sapiens (Human), UniProt O00444)      fulfilled
16  COc1ccc2c(c1)[C@]1(C[C@H]1c1ccc3c(Nc4cn(CCO)nc4OC)n[nH]c3c1)C(=O)N2  human recombinant PLK4 (Homo sapiens (Human), UniProt O00444)  not fulfilled
17  COc1ccc2c(c1)[C@]1(C[C@H]1c1ccc3c(Nc4cn(C)nc4C#N)n[nH]c3c1)C(=O)N2  human recombinant PLK4 (Homo sapiens (Human), UniProt O00444)  not fulfilled
18  COc1ccc2c(c1)[C@]1(C[C@H]1c1ccc3c(Nc4ncc(S(C)(=O)=O)cc4Cl)n[nH]c3c1)C(=O)N2  human recombinant PLK4 (Homo sapiens (Human), UniProt O00444)      fulfilled
19  COc1ccc2c(c1)[C@]1(C[C@H]1c1ccc3c(Nc4nc5cccnc5cc4OC)n[nH]c3c1)C(=O)N2  human recombinant PLK4 (Homo sapiens (Human), UniProt O00444)      fulfilled
